Reference for the values: ChEMBL document CHEMBL3988442

- Tested on: Wolbachia pipientis
- procedure_details: Anti-Wolbachia Cell-Based Screen
- Assay type: functional
- Design: scale not given: in the data most compounds retested in dose-response had high values
- experimental_setup: 5 µM
The whole screen tested about 48,000 compounds, of which about 13,000 (27%) showed an effect of 50% or more. Some of the results follow.
Record form. Attribute: Percent Effect. Fill in for each entry.
I only need the number, in %, no unit after it.

Ask | Quick one: Percent Effect of `CCn1cnnc1CN(C)Cc1c[nH]nc1-c1ccc(F)cc1` ?
Reply | 6.499

Ask | Quick one: Percent Effect of CCOCCN1CCN(C(C)C(=O)Nc2ccnn2C(C)C)CC1 (stereo unspecified) ?
Reply | -7.106

Ask | Quick one: Percent Effect of `COc1ccc(OCc2nc3cc4c(cc3c(=O)o2)OCCCO4)cc1` ?
Reply | -25.33

Ask | Quick one: Percent Effect of `CC(C)N(Cc1nc2c(cnn2C)c(=O)[nH]1)c1ccccc1` ?
Reply | -5.677

Ask | Quick one: Percent Effect of COC(C(=O)NCc1c(C)nc2cc(=O)[nH]n2c1C)c1ccccc1 (stereo unspecified) ?
Reply | -2.131

Ask | Quick one: Percent Effect of `COCCN(CCOC)Cc1nc2c(cnn2C)c(=O)[nH]1` ?
Reply | 107.8

Ask | Quick one: Percent Effect of Cc1ccc(C(C)N(C)Cc2nc3c(cnn3C)c(=O)[nH]2)cc1 (stereo unspecified) ?
Reply | -5.253

Ask | Quick one: Percent Effect of CC(Cc1cccc(F)c1)C(=O)NS(=O)(=O)c1cnn(C)c1 (stereo unspecified) ?
Reply | -18.57

Ask | Quick one: Percent Effect of CC(=O)c1cccc(NC(=O)CN2CCCC(C3OCCO3)C2)c1 (stereo unspecified) ?
Reply | 1.142

Ask | Quick one: Percent Effect of `CCN(C)C(=O)CN1CCC(c2cc(N3CCOCC3)nc(C)n2)CC1` ?
Reply | 11.68

Ask | Quick one: Percent Effect of COCCN(Cc1nc2c(cnn2C)c(=O)[nH]1)C(C)c1ccccc1 (stereo unspecified) ?
Reply | 98.63

###

- System: Wolbachia pipientis
- procedure_details: Anti-Wolbachia Cell-Based Screen
- Type: functional
- Parameters: scale not given: in the data most compounds retested in dose-response had high values
- experimental_setup: 5 µM
Hit rate of the full screen: of about 48,000 compounds, about 13,000 (27%) showed an effect of 50% or more. The list shows a part of the results.
Record form. Attribute: Percent Effect. Fill in for each entry.
The reply should consist of the numeric value with the unit placed after it.

Ask | Quick one: Percent Effect of `CCn1c(CC2CCN(C(=O)c3cc(C(C)C)n[nH]3)CC2)n[nH]c1=O` ?
Reply | -9.861%

Ask | Quick one: Percent Effect of COc1ccc(SC(C)C(=O)N2CCC(NC(=O)C3CC3)CC2)cc1 (stereo not drawn) ?
Reply | -11.29%

Ask | Quick one: Percent Effect of CC(Cn1cncn1)NC(=O)NCC(C)(C)Cc1ccccc1 (stereo not drawn) ?
Reply | -14.88%

Ask | Quick one: Percent Effect of `Cc1nc(N2C[C@@H](CN3CCCN(C)CC3)[C@@H](CO)C2)c2sccc2n1` ?
Reply | 6.466%

Ask | Quick one: Percent Effect of `Cc1nc(N2C[C@@H](CN3CCCN(C)CC3)[C@@H](CO)C2)c2ccsc2n1` ?
Reply | 13.06%

Ask | Quick one: Percent Effect of `CC(C)(NC(=O)C1CCN(C2CCCCC2)CC1)c1nnc(N)s1` ?
Reply | 3.743%

Ask | Quick one: Percent Effect of Nc1ccc(CC2COc3ccccc3C2)cn1 (stereo not drawn) ?
Reply | 18.77%

Ask | Quick one: Percent Effect of `O=C(Cc1ccc(F)cc1)NCCNc1cc(N2CCCC2)cnn1` ?
Reply | 105.1%

Ask | Quick one: Percent Effect of `Cc1nc(COCc2nc3c(o2)CN(C(=O)c2ccc[nH]2)C3)cs1.O=C(O)C(F)(F)F` ?
Reply | -0.815%

Ask | Quick one: Percent Effect of `CCOCC(=O)Nc1ccc(-n2ccc(C(N)=O)n2)cc1` ?
Reply | 5.23%

Ask | Quick one: Percent Effect of `CCc1ccc(CN2CCc3ncnc(N4CCOCC4)c3CC2)o1.O=C(O)C(F)(F)F` ?
Reply | 10.74%

Ask | Quick one: Percent Effect of `CCN1C(=O)C2(CCOCC2)c2cc(NC(=O)c3cc(C)n[nH]3)ccc21` ?
Reply | -4.188%

Ask | Quick one: Percent Effect of `O=C(Cn1ccc2ccccc21)Nc1cc(N2CCCC2)ncn1` ?
Reply | -7.456%

Ask | Quick one: Percent Effect of O=C(Cc1ccc(F)cc1)NCCNCC1CNc2ccnn2C1 (stereo not drawn) ?
Reply | -7.839%

Ask | Quick one: Percent Effect of `CNC(=O)C(C)(C)N1CCC[C@H]1C(=O)NC1CCCC1` ?
Reply | 1.106%

Ask | Quick one: Percent Effect of `Cc1ccc2c(n1)N(Cc1cccnc1)CCN(C(=O)C1CC=CC1)C2` ?
Reply | 112.8%

Ask | Quick one: Percent Effect of `O=C(NCCNc1cc(N2CCCC2)cnn1)Nc1ccccc1F` ?
Reply | 106.6%

Ask | Quick one: Percent Effect of CN1CCOC(C(=O)Nc2nnc(Cc3ccc(F)cc3)[nH]2)C1 (stereo not drawn) ?
Reply | -0.8523%

Ask | Quick one: Percent Effect of `Cc1nc(N(C)C)nc(C)c1NC(=O)c1ccco1` ?
Reply | 16.89%

Ask | Quick one: Percent Effect of CCC1c2ccsc2CCN1C(=O)NCCNc1ncccn1 (stereo not drawn) ?
Reply | 9.072%

Ask | Quick one: Percent Effect of Cn1ncc2c(=O)[nH]c(N3CCCC3c3cccs3)nc21 (stereo not drawn) ?
Reply | 2.416%

Ask | Quick one: Percent Effect of `c1cnc(NCCCOC2CCOCC2)nc1` ?
Reply | 1.156%

Ask | Quick one: Percent Effect of `Cn1ccnc1CN1C(=O)CO[C@H]2CN(Cc3ccc(F)c(F)c3)C[C@H]21` ?
Reply | 5.068%

###

Record form. Attribute: Percent Effect. Fill in for each entry.
- Test system: Wolbachia pipientis
- procedure_details: Anti-Wolbachia Cell-Based Screen
- Format: functional
- Design: scale not given: in the data most compounds retested in dose-response had high values
- experimental_setup: 5 µM
Hit rate of the full screen: of about 48,000 compounds, about 13,000 (27%) showed an effect of 50% or more. The list shows a part of the results.
I only need the number, in %, no unit after it.

Ask | Quick one: Percent Effect of `O=S(=O)(c1ccccc1)N1CCN(CCn2ccnc2)CC1` ?
Reply | -17.14

Ask | Quick one: Percent Effect of Cc1nc(CNC2CCc3ncnn3C2)oc1C (stereo not given) ?
Reply | -6.098

Ask | Quick one: Percent Effect of CCCOC1CCCN(c2ncnc3c2CCN(C(=O)C2CC2)C3)C1 (stereo not given) ?
Reply | 1.517

Ask | Quick one: Percent Effect of CCN(C(c1cccnc1)c1ccc2c(c1)CCO2)S(C)(=O)=O (stereo not given) ?
Reply | 5.843

Ask | Quick one: Percent Effect of CCn1ncnc1C(C)NC(=O)C1CCN(C(C)C)CC1 (stereo not given) ?
Reply | -6.672

Ask | Quick one: Percent Effect of `O=S(=O)(c1ccc(Cl)cc1)N1CCN(CCCn2ccnc2)CC1` ?
Reply | -9.759

Ask | Quick one: Percent Effect of `COCc1nc(N2CCC(CCO)CC2)c2cnn(C)c2n1` ?
Reply | -4.999

Ask | Quick one: Percent Effect of `CO[C@H]1CN(C(=O)c2cccnc2)[C@@H]2CCCO[C@H]12.O=C(O)C(F)(F)F` ?
Reply | 121

Ask | Quick one: Percent Effect of OCC1(CC2CC2)CCCN(Cc2cnc(N3CCOCC3)nc2)C1 (stereo not given) ?
Reply | 1.203

Ask | Quick one: Percent Effect of CCC1CN(C(=O)COc2ccc(NC(C)=O)cc2)CCO1 (stereo not given) ?
Reply | -18.64

Ask | Quick one: Percent Effect of c1csc(-c2noc(CCCNC3CCc4ncnn4C3)n2)c1 (stereo not given) ?
Reply | 7.784

Ask | Quick one: Percent Effect of `CCc1nc(N2CCN(Cc3ncccc3C)CC2)c2cnn(C)c2n1` ?
Reply | 1.339

Ask | Quick one: Percent Effect of COc1cccc(S(=O)(=O)CCNC2CCc3ncnn3C2)c1 (stereo not given) ?
Reply | 109.9

Ask | Quick one: Percent Effect of CC(=O)N(Cc1ncc(C)o1)C1CCN(Cc2ccccc2F)C1 (stereo not given) ?
Reply | 139.2

Ask | Quick one: Percent Effect of CCn1ncnc1C(C)Nc1cc(C)c2ccc(SC)cc2n1 (stereo not given) ?
Reply | -5.818

Ask | Quick one: Percent Effect of O=C(CNC1CCc2ncnn2C1)NCCc1cccs1 (stereo not given) ?
Reply | 2.681

Ask | Quick one: Percent Effect of CC(=O)N(Cc1ncc(C)o1)C1CCN(Cc2ccncc2Cl)C1 (stereo not given) ?
Reply | -1.852

Ask | Quick one: Percent Effect of CC(=O)Nc1ccc(S(=O)(=O)NC(=O)CCC2CCCO2)cc1 (stereo not given) ?
Reply | -4.56

Ask | Quick one: Percent Effect of `Cc1nc(C(C)C)sc1C(=O)NS(=O)(=O)c1ccc(C#N)cc1` ?
Reply | -14.12

Ask | Quick one: Percent Effect of CCCOC1CCCN(c2nc(COC)nc3c2cnn3C)C1 (stereo not given) ?
Reply | 118.8

Ask | Quick one: Percent Effect of `Nc1ccnc(N2CCC(CCc3ccccc3)(C(=O)O)CC2)n1` ?
Reply | -1.622

Ask | Quick one: Percent Effect of c1ccc(N2CCN(Cc3cnc(C4CCCCO4)nc3)CC2)cc1 (stereo not given) ?
Reply | 50.77

Ask | Quick one: Percent Effect of `O=C1NCCO[C@H]2CN(C(=O)CCc3ccccc3Cl)CC[C@@H]12` ?
Reply | -36.6

Ask | Quick one: Percent Effect of O=S(=O)(CCCNC1CCc2ncnn2C1)c1ccccc1 (stereo not given) ?
Reply | 113.7

Ask | Quick one: Percent Effect of CCn1ncnc1C(C)Nc1cc(C2CC2)ncn1 (stereo not given) ?
Reply | 83.57

Ask | Quick one: Percent Effect of `CNc1nc(C)cc(NCc2cc(C)cc3c(C)c(C)[nH]c23)n1` ?
Reply | -6.475

Ask | Quick one: Percent Effect of `COc1ccc(S(=O)(=O)N2CCOC[C@H](Oc3cnccn3)C2)cc1` ?
Reply | -5.156

Ask | Quick one: Percent Effect of `Cc1oc(CNC(=O)Cc2cccc(OC(F)F)c2)cc1C(=O)O` ?
Reply | 1.075

Ask | Quick one: Percent Effect of `CN(C)[C@H]1CCN(c2nc(C(C)(C)C)nc3c2cnn3C)C1` ?
Reply | -2.508

Ask | Quick one: Percent Effect of `COc1cncc(N2CCN(Cc3ccncc3Cl)CC2)n1` ?
Reply | -15.95

Ask | Quick one: Percent Effect of COC(C)c1cccc(NC(=O)N(CCC#N)Cc2ccccn2)c1 (stereo not given) ?
Reply | 1.571

Ask | Quick one: Percent Effect of OCC1(O)CCN(Cc2ccc(C3CCCCO3)o2)CC1 (stereo not given) ?
Reply | 2.159

Ask | Quick one: Percent Effect of c1ccc(CN2CCN(Cc3cnc(C4CCCCO4)nc3)CC2)cc1 (stereo not given) ?
Reply | 181.4

Ask | Quick one: Percent Effect of `O=S(=O)(c1ccccc1)N1CCCN(CCCn2ccnc2)CC1` ?
Reply | 1.416

Ask | Quick one: Percent Effect of Cc1ccc(NCCCNC(=O)NCC2CCS(=O)(=O)C2)nc1 (stereo not given) ?
Reply | 4.563

Ask | Quick one: Percent Effect of `COCc1nc(N2CC[C@H](N(C)C)C2)c2cnn(C)c2n1` ?
Reply | 102.3

Ask | Quick one: Percent Effect of `CN(C)[C@H]1CCCCN(Cc2cnc(NCc3ccccc3)nc2)C1` ?
Reply | -3.217

Ask | Quick one: Percent Effect of `Cc1occc1C(=O)N1C[C@H](Oc2ccccn2)[C@H]2OCCC[C@H]21.O=C(O)C(F)(F)F` ?
Reply | -5.077

Ask | Quick one: Percent Effect of CC(Oc1ccccc1C(F)(F)F)C(=O)NS(=O)(=O)C(C)C (stereo not given) ?
Reply | -1.095

Ask | Quick one: Percent Effect of `O=C(O)C(F)(F)F.O=C(c1ccnnc1)N1C[C@H](Oc2ccccn2)[C@H]2OCCC[C@H]21` ?
Reply | 96.83

Ask | Quick one: Percent Effect of CCC1CN(C(=O)c2ccccc2C(C)=O)CCN1C(C)C (stereo not given) ?
Reply | 1.877

Ask | Quick one: Percent Effect of Clc1ccc(-c2cnc(CNC3CCc4ncnn4C3)o2)cc1 (stereo not given) ?
Reply | -3.633

Ask | Quick one: Percent Effect of `Cc1cccc(C(=O)N2C[C@@H](OCc3cccnc3)[C@H]3OCCC[C@@H]32)n1.O=C(O)C(F)(F)F.O=C(O)C(F)(F)F` ?
Reply | 19.74

Ask | Quick one: Percent Effect of `CCN(C)C[C@@H]1CN(S(=O)(=O)c2ccc(OC)cc2)C[C@@H]1CO` ?
Reply | 9.662

Ask | Quick one: Percent Effect of COCC1CN(Cc2ccccn2)Cc2cn(C)nc21.O=C(O)C(F)(F)F.O=C(O)C(F)(F)F.O=C(O)C(F)(F)F (stereo not given) ?
Reply | -7.522
